Cited source for all entries: ChEMBL document CHEMBL1156608

Observed Kd, system Galectin-3 (Homo sapiens).

{"columns": ["smiles_notation", "assayed_system", "unit_label", "Kd"],
 "data": [
  ["O=S(=O)(c1ccc2ccccc2c1)[C@@H]1O[C@H](CO)[C@@H](O[C@@H]2O[C@H](CO)[C@H](O)[C@H](O)[C@H]2O)[C@H](O)[C@H]1O", "Galectin-3 (Homo sapiens)", "µM", 313],
  ["O=C(N[C@@H]1[C@H](O)[C@H](CO)O[C@H](S[C@@H]2O[C@H](CO)[C@H](O)[C@H](NC(=O)c3ccc([N+](=O)[O-])cc3)[C@H]2O)[C@H]1O)c1ccc([N+](=O)[O-])cc1", "Galectin-3 (Homo sapiens)", "µM", 0.033]
]}
